# Study System: HIV-1 envelope (Env) of virus AC10.0.29 (HIV-1)
# Protocol Details: cell-based or functional assay
Listed here are binders together with their documented IC50 of viral neutralization (Env.IMC.LucR virus, TZM-BL reporter cells).
Test Readout: IC50 of viral neutralization (Env.IMC.LucR virus, TZM-BL reporter cells) (µg/mL)

[
  {
    "Binder": "L2A1_H58ND (antibody, V domains shown) VH: HVQLVQSGGGVKKIGAAVRISCEVTGYKFMDQLINWVRQAPGQGLEWMGWMNPTYGQVDYSWRFEGRVTMTRDMDTETAFMELRGLRVDDTAVYYCARGPSGENYPFHYWGQGVRVVVSS VL: ASALTQPASMSASPGQSVTISCSGTRHIISAWFQQYPGKPPKLIIFDDDKRPSGVPSRFSASRPGDTASLTISNVQPEDEATYICNTYEFFGGGTRLTVL",
    "Inequality Symbol": ">",
    "Recorded Measurement": 50
  },
  {
    "Binder": "L2A1_H60SA (antibody, V domains shown) VH: HVQLVQSGGGVKKIGAAVRISCEVTGYKFMDQLINWVRQAPGQGLEWMGWMNPTYGQVNYAWRFEGRVTMTRDMDTETAFMELRGLRVDDTAVYYCARGPSGENYPFHYWGQGVRVVVSS VL: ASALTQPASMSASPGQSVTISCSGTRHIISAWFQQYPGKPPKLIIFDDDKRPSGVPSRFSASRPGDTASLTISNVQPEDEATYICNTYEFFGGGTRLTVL",
    "Inequality Symbol": "=",
    "Recorded Measurement": 0.072
  },
  {
    "Binder": "L2A1_H60SN (antibody, V domains shown) VH: HVQLVQSGGGVKKIGAAVRISCEVTGYKFMDQLINWVRQAPGQGLEWMGWMNPTYGQVNYNWRFEGRVTMTRDMDTETAFMELRGLRVDDTAVYYCARGPSGENYPFHYWGQGVRVVVSS VL: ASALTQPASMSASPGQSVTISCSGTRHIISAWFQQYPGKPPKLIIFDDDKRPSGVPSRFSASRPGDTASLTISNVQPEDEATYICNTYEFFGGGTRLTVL",
    "Inequality Symbol": "=",
    "Recorded Measurement": 0.087
  }
]
